Target: human recombinant 5-HT2A receptor (Homo sapiens (Human))
Assay: 5-HT2A receptor binding inhibition test ([3H]-Ketanserin)
Conditions: Jump-In HEK cell membrane, read-out: human serotonin 5-HT2A receptor binding activity, Ki value
pKi: −log10 of the molar value.
Hi, to clarify the labels: rule met covers pKi from 9 upward, rule not met covers anything below 9.

Here's what some known entries look like.
compound	label
CC(C)COc1ccc(CN(Cc2ccn(C)n2)C(=O)NC2CCN(C)CC2)cc1	rule not met
CC(C)COc1ccc(CN(Cc2cnn(C)n2)C(=O)OC2CCN(C)CC2)cc1	rule not met
CC(C)COc1ccc(CN(Cc2cc3ccccc3o2)C(=O)NC2CCN(C)CC2)cc1	rule not met
CCCCOc1ccc(CN(Cc2coc(C)n2)C(=O)NC2CCN(C)CC2)cc1	rule met
CC(C)COc1ccc(CN(Cc2ccn(C)n2)C(=O)CC2CCN(C)CC2)cc1	rule not met
CN1CCC(NC(=O)N(Cc2ccc3c(c2)CCO3)Cc2ccn(C)n2)CC1	rule not met

## Input Reported pKi reaches at least 9 for CN1CCC(NC(=O)N(Cc2ccc(C3CC3)cc2)Cc2ccn(C)n2)CC1 ?
## Output rule not met

## Input Reported pKi reaches at least 9 for CCCCOc1ccc(CN(Cc2coc(C)n2)C(=O)CC2CCN(C)CC2)cc1F ?
## Output rule met

## Input Reported pKi reaches at least 9 for CN1CCC(NC(=O)N(Cc2ccc(OC(F)(F)F)cc2)Cc2ccn(C)n2)CC1 ?
## Output rule not met

## Input Reported pKi reaches at least 9 for CC(C)COc1ccc(CN(Cc2ccn(C)n2)C(=O)NC2CCCN(C)CC2)cc1 (racemic) ?
## Output rule not met

## Input Reported pKi reaches at least 9 for CCCCOc1ccc(CN(Cc2coc(C(F)F)n2)C(=O)NC2CCN(C)CC2)cc1 ?
## Output rule met

## Input Reported pKi reaches at least 9 for CC(C)COc1ccc(CN(Cc2ccn(C)n2)C(=O)N[C@H]2CCN(C)CC23CC3)cc1 ?
## Output rule not met

## Input Reported pKi reaches at least 9 for CC(C)COc1ccc(CN(Cc2cnn(C)n2)C(=O)N[C@H]2CCN(C)CC23CC3)cc1 ?
## Output rule not met

## Input Reported pKi reaches at least 9 for CN1CCC(NC(=O)N(Cc2ccc(Oc3ccccc3)cc2)Cc2ccn(C)n2)CC1 ?
## Output rule not met

----------
Target: human recombinant 5-HT2A receptor (Homo sapiens (Human), UniProt P28223)
Sequence (P28223 whole entry): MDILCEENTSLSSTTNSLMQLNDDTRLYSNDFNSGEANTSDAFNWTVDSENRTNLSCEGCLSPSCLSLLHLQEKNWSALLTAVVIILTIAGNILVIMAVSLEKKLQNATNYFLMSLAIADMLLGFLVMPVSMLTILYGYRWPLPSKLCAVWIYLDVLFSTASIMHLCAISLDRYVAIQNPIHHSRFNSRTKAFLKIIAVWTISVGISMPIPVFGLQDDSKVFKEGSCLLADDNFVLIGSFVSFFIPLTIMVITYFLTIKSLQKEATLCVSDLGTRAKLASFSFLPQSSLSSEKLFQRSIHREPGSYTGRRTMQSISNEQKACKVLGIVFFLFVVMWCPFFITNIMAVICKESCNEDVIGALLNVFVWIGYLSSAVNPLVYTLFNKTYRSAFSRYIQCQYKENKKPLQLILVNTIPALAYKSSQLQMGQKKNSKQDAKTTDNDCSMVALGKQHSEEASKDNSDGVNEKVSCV
Experiment: 5-HT2A receptor binding inhibition test ([3H]-Ketanserin)
Conditions: Jump-In HEK cell membrane, read-out: h-5-HT2A Ki
readout-label: Ki

COc1ccc(CN(Cc2ccn(C)n2)C(=O)NC2CCN(C)CC2)cc1F < 0.01 µM
CCCOc1ccc(CN(Cc2ccc(F)cn2)C(=O)NC2CCN(C)CC2)cc1 < 0.01 µM
CN1CCC(NC(=O)N(Cc2ccc(OCCO)cc2)Cc2ccn(C)n2)CC1 0.1 to 5 µM

Now examine the next entry.
## Input State its Ki for this compound: COc1ccc(CN(Cc2ccn(C)n2)C(=O)NC2CCN(C)CC2)nc1
## Output 0.1 to 5 µM

----------
Molecular target: human recombinant 5-HT2C receptor (Homo sapiens (Human), UniProt P28335)
Sequence (P28335 33-458): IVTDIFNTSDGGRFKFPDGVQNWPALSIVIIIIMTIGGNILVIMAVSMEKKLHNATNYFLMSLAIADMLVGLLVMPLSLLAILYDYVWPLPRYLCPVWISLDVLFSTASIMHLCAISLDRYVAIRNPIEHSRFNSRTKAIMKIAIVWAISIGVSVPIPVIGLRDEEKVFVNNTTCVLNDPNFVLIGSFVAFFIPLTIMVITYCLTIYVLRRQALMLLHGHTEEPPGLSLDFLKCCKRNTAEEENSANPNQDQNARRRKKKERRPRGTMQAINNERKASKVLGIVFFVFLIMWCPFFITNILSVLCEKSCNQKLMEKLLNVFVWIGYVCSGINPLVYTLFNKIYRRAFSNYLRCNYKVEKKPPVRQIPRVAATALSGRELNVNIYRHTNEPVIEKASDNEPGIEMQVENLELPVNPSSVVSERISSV
Assay: 5-HT2C receptor binding inhibition test ([3H]-Mesulergine)
Settings: Jump-In HEK cell membrane, [3H]-Mesulergine; read-out: human serotonin 5-HT2C receptor binding inhibitory activity, Ki value
Under this convention, yes (1) denotes Ki strictly below 0.4 nM and no (0) denotes Ki at or above 0.4 nM.

molecule	target-of-assay	label
CN1CCC(NC(=O)N(Cc2ccc(C3CC3)cc2)Cc2ccn(C)n2)CC1	human recombinant 5-HT2C receptor (Homo sapiens (Human), UniProt P28335)	no (0)
CCCCOc1ccc(CN(Cc2coc(C(F)F)n2)C(=O)NC2CCN(C)CC2)cc1	human recombinant 5-HT2C receptor (Homo sapiens (Human), UniProt P28335)	no (0)
CCCCOc1ccc(CN(Cc2coc(C3CC3)n2)C(=O)NC2CCN(C)CC2)cc1	human recombinant 5-HT2C receptor (Homo sapiens (Human), UniProt P28335)	yes (1)

## Input Strictly below 0.4 nM in Ki? CC(C)COc1ccc(CN(Cc2ccn(C)n2)C(=O)NC2CCCN(C)CC2)cc1 (racemic)
## Output no (0)

## Input Strictly below 0.4 nM in Ki? CN1CCC(NC(=O)N(Cc2ccc(OC(F)(F)F)cc2)Cc2ccn(C)n2)CC1
## Output no (0)

## Input Strictly below 0.4 nM in Ki? CN1CCC(NC(=O)N(Cc2ccc(Oc3ccccc3)cc2)Cc2ccn(C)n2)CC1
## Output no (0)

----------
Target: human recombinant 5-HT2C receptor (Homo sapiens (Human), UniProt P28335)
Assay: 5-HT2C receptor binding inhibition test ([3H]-Mesulergine)
Conditions: Jump-In HEK cell membrane, [3H]-Mesulergine; read-out: human serotonin 5-HT2C receptor binding inhibitory activity, Ki value
As shown below, each of these compounds has a reported pKi value.
Reminder that pKi means the negative base-10 logarithm of the concentration expressed in mol/L.

For orientation, consider the following solved cases.
compound	pKi
CC(C)COc1ccc(CN(Cc2cnn(C)n2)C(=O)NC2CCN(C)CC2)cc1	9.34
Cc1nc(CN(Cc2ccc(CCC(F)(F)F)cc2F)C(=O)NC2CCN(C)CC2)co1	9.32
CC(C)COc1ccc(CN(Cc2cc3ccccc3o2)C(=O)NC2CCN(C)CC2)cc1	7.54
CCCCOc1ccc(CN(Cc2coc(C)n2)C(=O)CN2CCN(C)CC2)cc1F	8.20
CC(C)COc1ccc(CN(Cc2ccc(F)cn2)C(=O)N[C@H]2CCNC[C@H]2F)cc1 (single isomer, unassigned)	8.61
CC(C)COc1ccc(CN(Cc2ccn(C)n2)C(=O)NC2CCN(C)CC2)cc1	8.51

## Input State its pKi for this compound: Cc1nc(CN(Cc2ccc(OCC(C)C)cc2F)C(=O)NC2CCN(C)CC2)co1
## Output 9.50

## Input State its pKi for this compound: CC(C)COc1ccc(CN(Cc2cnn(C)n2)C(=O)N[C@H]2CCN(C)CC23CC3)cc1
## Output 9.20

----------
Biological target: human recombinant 5-HT2C receptor (Homo sapiens (Human))
Assay: 5-HT2C receptor binding inhibition test ([3H]-Mesulergine)
Conditions: Jump-In HEK cell membrane, [3H]-Mesulergine; read-out: h-5-HT2C Ki
pKi: −log10 of the molar value.
As shown below, each of these compounds has a reported pKi value.

For orientation, consider the following solved cases.
CN1CCC(NC(=O)N(Cc2ccc(OCCO)cc2)Cc2ccn(C)n2)CC1 5.30 to 7.00
CC(C)COc1ccc(CN(Cc2ccn(C)n2)C(=O)N[C@@H]2CCN(C)C[C@H]2C)cc1 > 8.00
CC(C)COc1ccc(CN(Cc2ccn(C)n2)C(=O)CN2CCN(C)CC2)cc1 5.30 to 7.00
CC(C)COc1ccc(CN(Cc2nn(C)cc2Cl)C(=O)NC2CCN(C)CC2)cc1 7.00 to 8.00
Cc1nc(CN(Cc2ccc(OCC(C)C)cc2)C(=O)NC2CCN(C)CC2)co1 > 8.00

## Input State its pKi for this compound: Cc1nc(CN(Cc2ccc(CCC(F)(F)F)cc2)C(=O)NC2CCN(C)CC2)co1
## Output > 8.00

## Input State its pKi for this compound: Cc1nc(CN(Cc2ccc(OCC(C)C)c(F)c2)C(=O)NC2CCN(C)CC2)co1
## Output > 8.00

## Input State its pKi for this compound: CC(C)COc1ccc(CN(Cc2ccn(C)n2)C(=O)NC2CCN(CC3CCC3)CC2)cc1
## Output 7.00 to 8.00

----------
Target: human recombinant 5-HT2C receptor (Homo sapiens (Human), UniProt P28335)
Experiment: 5-HT2C receptor binding inhibition test ([3H]-Mesulergine)
Details: Jump-In HEK cell membrane, [3H]-Mesulergine; read-out: h-5-HT2C Ki
pKi: −log10 of the molar value.
readout-label: pKi

For orientation, consider the following solved cases.
compound	readout-label	result
Cc1nc(CN(Cc2ccc(OCC(C)C)cc2)C(=O)OC2CCN(C)CC2)co1	pKi	> 8.00
CCCCOc1ccc(CN(Cc2coc(CF)n2)C(=O)NC2CCN(C)CC2)cc1	pKi	> 8.00
CC(C)COc1ccc(CN(Cc2ccn(C)n2)C(=O)N[C@@H]2CCNCC2(F)F)cc1	pKi	5.30 to 7.00
CC(C)COc1ccc(CN(Cc2coc(CF)n2)C(=O)NC2CCN(C)CC2)cc1	pKi	> 8.00
CC(C)COc1ccc(CN(Cc2ccn(C)n2)C(=O)NC2CC3CC2CN3C)cc1 (centres unmarked)	pKi	7.00 to 8.00
CC(C)COc1ccc(CN(Cc2cnccn2)C(=O)NC2CCN(C)CC2)cc1	pKi	7.00 to 8.00

## Input State its pKi for this compound: CC(C)COc1ccc(CN(Cc2ccn(C)n2)C(=O)NC2(C)CCN(C)CC2)cc1
## Output 5.30 to 7.00

## Input State its pKi for this compound: CC(C)COc1ccc(CN(Cc2ccc(F)cn2)C(=O)OC2CCN(C)CC2)cc1
## Output 7.00 to 8.00
